target or system: Programmed cell death protein 1/Programmed cell death 1 ligand 1 (Homo sapiens)
assay remarks: Inhibition of PD-1/PD-L1 interaction (unknown origin) incubated for 1 hr by HTRF assay
metric: IC50

chem smiles	reported value
COc1c(NCc2ccc(OCc3ccc(F)cc3)c(CNCCNC(C)=O)c2)cccc1-c1ccc2cc[nH]c2c1	> 32 µM
COc1c(NCc2ccc(OCc3cccc(C#N)c3)c(CNCCO)c2)cccc1-c1ccc2ccccc2c1	> 32 µM
COc1c(NCc2ccc(OCc3ccc(F)cc3)c(CNCCO)c2)cccc1-c1ccc2cc[nH]c2c1	> 32 µM

* * *

target or system: Programmed cell death protein 1/Programmed cell death 1 ligand 1 (Homo sapiens, UniProt Q9NZQ7)
Sequence (Q15116 whole entry): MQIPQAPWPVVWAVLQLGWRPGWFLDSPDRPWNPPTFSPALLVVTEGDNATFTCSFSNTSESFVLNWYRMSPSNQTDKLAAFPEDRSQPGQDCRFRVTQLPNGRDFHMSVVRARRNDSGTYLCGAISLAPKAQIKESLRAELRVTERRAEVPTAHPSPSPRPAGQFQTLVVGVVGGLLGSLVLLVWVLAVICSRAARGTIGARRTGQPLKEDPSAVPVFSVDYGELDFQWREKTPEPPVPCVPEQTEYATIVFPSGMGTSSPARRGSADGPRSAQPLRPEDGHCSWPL
Sequence (Q9NZQ7 whole entry): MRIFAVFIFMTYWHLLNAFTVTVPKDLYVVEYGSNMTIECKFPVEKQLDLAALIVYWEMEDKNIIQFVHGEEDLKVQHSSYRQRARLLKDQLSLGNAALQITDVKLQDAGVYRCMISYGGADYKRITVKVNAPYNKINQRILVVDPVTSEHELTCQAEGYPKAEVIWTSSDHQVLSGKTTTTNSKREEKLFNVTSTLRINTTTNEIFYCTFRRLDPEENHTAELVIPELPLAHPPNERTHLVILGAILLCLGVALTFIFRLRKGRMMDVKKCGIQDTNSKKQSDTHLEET
assay remarks: Inhibition of PD-1/PD-L1 interaction (unknown origin) incubated for 1 hr by HTRF assay
pIC50: −log10 of the molar value.
metric: pIC50

molecule	qualifier operator	reported value
COc1c(NCc2ccc(OCc3cccc(C#N)c3)c(CNCCNC(C)=O)c2)cccc1-c1ccc2ccccc2c1	<	4.49
N#Cc1cccc(COc2cc(OCc3cccc(-c4ccccc4F)c3Cl)ccc2CN2CCC(O)C2)c1 (centres undefined)	=	4.72
N#Cc1cccc(COc2cc(OCc3cccc(-c4ccccc4F)c3Cl)ccc2CNCC(=O)O)c1	=	5.22
COc1c(COc2ccc(CNCCNC(C)=O)c(OCc3cccc(C#N)c3)c2)cccc1-c1ccccc1Cl	=	5.44
